B1: DLC1 (parent)
chain: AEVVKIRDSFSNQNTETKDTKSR

Variants of: B1
Assay: protein stability index of a GFP-peptide fusion (GPS, HEK-293T) (PSI 1-6); higher = more stable;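 further: lentivirally expressed fusions sorted by FACS into six bins by GFP to DsRed ratio, PSI derived from sequencing read proportions per bin multiplied by bin number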
Details: c terminus: native
Catalogue of protein stability index values
Please state the value as a number alone, without comment.

              biopolymer_sequence  observed_result
0  AEVVKIRDSFSHQNTETKDTKSR [N12H]             2.44
1   AEVVKIRDWFSNQNTETKDTKSR [S9W]             2.14
2   AEVVKIRDTFSNQNTETKDTKSR [S9T]             2.29
3  AEVVKIRDSFSNQNTETIDTKSR [K18I]             2.26
4   AEVVKIRDLFSNQNTETKDTKSR [S9L]             2.95

The variant identified as AEVVSIRDSFSNQNTETKDTKSR [K5S] registered its protein stability index at 2.77
